System: Hepatotoxicity;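 note: Hepatitis-related hepatic side effect score taken from the training data of DILIps, a prediction system for drug-induced liver injury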; note: call rule not given here
run.parameters: Liver
We begin with a simple list: items and their reported HepSE_hepatitis.
// print number alone

Example results:
molecule	HepSE_hepatitis
Cc1cccc([C@H](C)c2cnc[nH]2)c1C [DEXMEDETOMIDINE]	0
COc1ccc2c3c1O[C@H]1C(=O)CC[C@@]4(O)[C@@H](C2)N(C)CC[C@]314 [OXYCODONE]	0
NC[C@@H]1O[C@H](O[C@H]2[C@@H](O)[C@H](O[C@@H]3[C@@H](O)[C@H](N)C[C@H](N)[C@H]3O[C@H]3O[C@H](CN)[C@@H](O)[C@H](O)[C@H]3N)O[C@@H]2CO)[C@H](N)[C@@H](O)[C@@H]1O [FRAMYCETIN]	0
Nc1c2c(nc3ccccc13)CCCC2 [TACRINE]	0
Cc1cccc(C)c1OCC(C)N (centres undefined) [MEXILETINE]	1
CCc1cc(C(N)=S)ccn1 [ETHIONAMIDE]	1
CC(C)NCC(O)COc1ccc(CCOCC2CC2)cc1 (centres undefined) [BETAXOLOL]	0
COc1cc([C@@H]2c3cc4c(cc3[C@@H](O[C@@H]3O[C@@H]5CO[C@@H](C)O[C@H]5[C@H](O)[C@H]3O)[C@H]3COC(=O)[C@H]23)OCO4)cc(OC)c1O [ETOPOSIDE]	0

Note: attention shifts to another entry.
Lookup: Retrieve HepSE_hepatitis measured for CN1[C@@H]2C[C@@H](OC(=O)[C@H](CO)c3ccccc3)C[C@H]1[C@@H]1O[C@@H]12 [SCOPOLAMINE] and print it.
Found: 0

Value source: ChEMBL document CHEMBL1909294
